# reported inhibition at 50 µM; entries follow
molecular target: S. aureus DNA gyrase (Staphylococcus aureus, UniProt P0A0K8+P20831); test: biochemical; conditions: read-out: % inhibition DNA gyrase
Sequence (P0A0K8 whole entry): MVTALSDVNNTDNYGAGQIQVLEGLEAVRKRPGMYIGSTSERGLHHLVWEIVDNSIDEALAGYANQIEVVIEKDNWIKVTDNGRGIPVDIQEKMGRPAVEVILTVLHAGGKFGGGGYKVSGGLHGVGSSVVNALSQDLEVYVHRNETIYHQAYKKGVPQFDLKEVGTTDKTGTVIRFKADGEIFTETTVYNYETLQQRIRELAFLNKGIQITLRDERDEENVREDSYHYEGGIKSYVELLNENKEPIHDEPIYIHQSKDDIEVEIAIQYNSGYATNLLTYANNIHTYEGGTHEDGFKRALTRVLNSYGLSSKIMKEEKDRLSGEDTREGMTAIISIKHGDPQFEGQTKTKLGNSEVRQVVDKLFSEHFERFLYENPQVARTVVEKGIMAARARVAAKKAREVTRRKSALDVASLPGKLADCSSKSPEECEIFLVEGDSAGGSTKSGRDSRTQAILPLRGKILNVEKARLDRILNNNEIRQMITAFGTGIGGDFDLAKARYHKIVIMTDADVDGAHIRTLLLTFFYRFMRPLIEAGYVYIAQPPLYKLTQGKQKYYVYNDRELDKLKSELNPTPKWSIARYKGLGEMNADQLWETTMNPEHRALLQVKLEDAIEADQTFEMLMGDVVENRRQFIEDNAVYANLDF
Sequence (P20831 whole entry): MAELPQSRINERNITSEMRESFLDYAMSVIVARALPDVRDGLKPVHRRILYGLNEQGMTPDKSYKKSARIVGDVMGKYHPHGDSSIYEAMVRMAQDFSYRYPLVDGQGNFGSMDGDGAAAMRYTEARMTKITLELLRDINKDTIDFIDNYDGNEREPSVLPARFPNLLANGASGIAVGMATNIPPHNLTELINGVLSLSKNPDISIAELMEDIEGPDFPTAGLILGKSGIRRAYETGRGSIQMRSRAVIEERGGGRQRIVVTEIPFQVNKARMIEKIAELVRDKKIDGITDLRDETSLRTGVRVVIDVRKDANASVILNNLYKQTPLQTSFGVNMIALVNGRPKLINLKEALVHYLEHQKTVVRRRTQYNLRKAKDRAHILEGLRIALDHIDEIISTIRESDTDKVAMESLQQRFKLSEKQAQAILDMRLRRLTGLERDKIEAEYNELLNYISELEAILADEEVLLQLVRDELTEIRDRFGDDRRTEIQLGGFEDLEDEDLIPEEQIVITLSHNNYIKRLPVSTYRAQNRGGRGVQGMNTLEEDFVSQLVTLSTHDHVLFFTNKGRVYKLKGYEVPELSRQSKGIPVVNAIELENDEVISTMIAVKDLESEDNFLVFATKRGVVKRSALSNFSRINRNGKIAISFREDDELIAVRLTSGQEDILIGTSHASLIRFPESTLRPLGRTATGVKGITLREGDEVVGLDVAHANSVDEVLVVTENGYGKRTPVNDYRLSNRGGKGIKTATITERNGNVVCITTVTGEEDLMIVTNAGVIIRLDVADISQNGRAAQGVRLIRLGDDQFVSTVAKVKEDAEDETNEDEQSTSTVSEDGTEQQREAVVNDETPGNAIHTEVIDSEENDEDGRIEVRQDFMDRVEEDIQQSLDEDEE
REPORTED PROPERTY: inhibition at 50 µM (%)

N#Cc1cnc2c(c1)N([C@H]1CC[C@@H](NCc3cc4c(=O)oc5ccc(F)cc5c4[nH]3)CC1)C(=O)CO2 : 96
O=c1nc(NCC(O)CN2CCN(c3nccc4cc[n+]([O-])cc34)CC2)c2cc(F)ccc2o1 (stereo not shown) : 100
COc1cnc2ccc(=O)n(C3CCN(CCc4cc5c(=O)oc6ccc(F)cc6c5[nH]4)CC3)c2n1 : 100
NC(=O)[C@]1(NCc2cc3c(=O)oc4ccc(F)cc4c3[nH]2)CC[C@H](N2C(=O)COc3ncc(F)cc32)CC1 : 100
O=C1COc2ncc(F)cc2N1[C@H]1CC[C@](CO)(NCc2cc3c(=O)oc4ccc(F)cc4c3[nH]2)CC1 : 100
COc1ccc2ncc(=O)n(C3CCN(CCc4cc5c(=O)oc6ccc(F)cc6c5[nH]4)CC3)c2n1 : 90
COc1ccc2ccc(=O)n(C3CCN(CCc4cc5c(=O)oc6ccc(F)cc6c5[nH]4)CC3)c2n1 : 100
